Biological target: MGL (Rattus norvegicus, UniProt Q8R431)
Construct: one g rat brain was homogenized using a Polytron homogenizer; from tissue; host or cells: rat brain homogenate
Sequence (Q8R431 1-303): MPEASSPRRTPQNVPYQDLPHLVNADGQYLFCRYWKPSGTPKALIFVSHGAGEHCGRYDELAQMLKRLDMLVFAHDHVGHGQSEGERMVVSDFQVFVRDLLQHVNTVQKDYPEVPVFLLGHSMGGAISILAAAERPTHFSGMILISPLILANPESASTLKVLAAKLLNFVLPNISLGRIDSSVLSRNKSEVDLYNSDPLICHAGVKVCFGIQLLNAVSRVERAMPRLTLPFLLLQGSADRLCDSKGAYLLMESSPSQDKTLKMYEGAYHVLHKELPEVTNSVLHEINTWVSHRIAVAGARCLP
Assay: 2-AG accumulation assay in rat brain homogenate
Assay type: biochemical
Conditions: rat brain homogenate; compound 1 μM; 2-AG accumulation as percent of vehicle; read-out: Rat Brain 2AG % VehCntrl (%) @ 1 μM
metric: 2-AG accumulation, % of vehicle control at 1 µM (%)

>>> experimental_result("O=C(c1ccccc1)N1CCN(C2CN(C(=O)c3ccc(OCc4ccccn4)c(Cl)c3)C2)CC1")
99
>>> experimental_result("O=C(c1cscn1)N1CCN(C2CN(C(=O)c3cc4cc(C(F)(F)F)ccc4s3)C2)CC1")
217
>>> experimental_result("O=C(c1ccc2c(ccn2-c2ccc(F)c(F)c2)c1)N1CC(N2CCN(C(=O)c3cscn3)CC2)C1")
628

(A) O=C(c1cc[nH]c1)N1CCN(C2CN(C(=O)c3ccc(-c4ccccc4)cc3)C2)CC1
(B) COc1cc(C(=O)N2CC(N3CCN(C(=O)c4cscn4)CC3)C2)ccc1-c1cccc(C(F)(F)F)c1
Query string: Which one would you say has the larger 2-AG accumulation, % of vehicle control at 1 µM value: A , or B ? Pick one; state its label.
Result string: B

----------
Target: purified wild type MGL (wt-MGLL 6H-11-313) (Homo sapiens)
Sequence (Q99685 1-303): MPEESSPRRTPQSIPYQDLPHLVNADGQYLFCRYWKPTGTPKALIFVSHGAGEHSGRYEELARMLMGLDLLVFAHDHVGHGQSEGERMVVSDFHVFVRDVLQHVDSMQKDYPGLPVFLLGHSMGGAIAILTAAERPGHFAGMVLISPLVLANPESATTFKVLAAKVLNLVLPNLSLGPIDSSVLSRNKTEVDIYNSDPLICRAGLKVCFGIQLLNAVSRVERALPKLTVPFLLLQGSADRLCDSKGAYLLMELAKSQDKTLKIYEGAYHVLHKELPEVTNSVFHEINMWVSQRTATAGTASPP
pIC50: −log10 of the molar value.
metric: pIC50

(I) Cc1cn(-c2ccc(F)cc2)c2ccc(C(=O)N3CCN(C4CN(C(=O)c5cscn5)C4)CC3)cc12
(II) O=C(c1ccc(OCc2cncc(Cl)c2)cc1)N1CC(N2CCN(C(=O)c3nccs3)CC2)C1
Query string: Which record would sort first by descending pIC50, I or II ? To answer, give the label that identifies your chosen option.
Result string: II

----------
Biological target: mutant MGL (Homo sapiens, UniProt Q99685, L169S/L176S)
Sequence (Q99685 1-303 L169S/L176S): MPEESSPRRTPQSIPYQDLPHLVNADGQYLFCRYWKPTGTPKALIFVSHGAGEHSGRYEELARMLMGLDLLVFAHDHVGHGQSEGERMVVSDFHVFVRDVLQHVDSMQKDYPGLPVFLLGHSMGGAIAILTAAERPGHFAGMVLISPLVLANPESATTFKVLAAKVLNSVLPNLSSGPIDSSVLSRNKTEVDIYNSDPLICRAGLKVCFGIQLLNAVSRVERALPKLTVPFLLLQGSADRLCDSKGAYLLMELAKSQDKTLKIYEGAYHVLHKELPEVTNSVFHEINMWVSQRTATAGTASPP
Assay: MGL ThermoFluor assay - mutant
Type: binding
Settings: ThermoFluor, compound concentration measured by qNMR, read-out: MGL mutant ThermoFluor qKd (μM) (using qNMR conc.)
metric: Kd (µM)

// known answers, use as guide
>>> experimental_result("O=C(c1cscn1)N1CCN(C2CN(C(=O)c3sc4c(C(F)(F)F)c(F)ccc4c3Cl)C2)CC1")
0.024
>>> experimental_result("O=C(c1ccc2c(ccn2-c2ccc(F)cc2)n1)N1CC(N2CCN(C(=O)c3nccs3)CC2)C1")
0.004
>>> experimental_result("COc1cncc(-c2ccc3cc(C(=O)N4CC(N5CCN(C(=O)c6nccs6)CC5)C4)[nH]c3c2)c1")
0.37
>>> experimental_result("O=C(c1ccc2[nH]ccc2c1)N1CC(N2CCN(C(=O)c3ccc[nH]3)CC2)C1")
0.855
>>> experimental_result("O=C(c1ccc2c(ccn2-c2ccc(F)cc2)c1)N1CC(N2CCN(C(=O)c3cocn3)CC2)C1")
0.018
>>> experimental_result("Cc1c(C(=O)N2CC(N3CCN(C(=O)c4nccs4)CC3)C2)sc2nc(C(F)(F)F)ccc12")
0.002

(a) Cc1cn(-c2ccccc2)c2ccc(C(=O)N3CC(N4CCN(C(=O)c5nccs5)CC4)C3)cc12
(b) O=C(c1ccc2nc(-c3nccs3)sc2c1)N1CC(N2CCN(C(=O)c3nccs3)CC2)C1
(c) O=C(c1ccc(-c2cccc(C(F)(F)F)c2)cc1)N1CC(N2CCN(C(=O)c3cocn3)CC2)C1
(d) O=C(c1cnc2ccn(-c3ccc(F)cc3)c2c1)N1CC(N2CCN(C(=O)c3nccs3)CC2)C1
Query string: Number of compounds to sort: 4. Sort criterion: Kd, ascending. Respond with the label ranking, as requested.
Result string: a, c, b, d

----------
System: CFA-induced paw radiant heat hypersensitivity
Experiment: CFA-induced paw radiant heat hypersensitivity
Assay type: in vivo, rat
Details: Rattus norvegicus, po; 30 mg/kg p.o., HPβCD, group mean values, last time point 180 or 300 min; read-out: CFA thermal hypersensitivity Method 1: peak % reversal
Procedure: Each rat was placed in a test chamber on a warm glass surface and allowed to acclimate for approximately 10 min. A radiant thermal stimulus (beam of light) was then focused through the glass onto the plantar surface of each hind paw in turn. […] An initial (baseline) response latency to the thermal stimulus was recorded for each animal prior to the injection of complete Freund's adjuvant (CFA). […] Method 2. […] Results are given as a mean of the maximum % reversal values calculated for each individual animal.
Reported inhibition in vivo at 30 mg/kg values follow for various compounds
I only need the number, in %, no unit after it.

>>> experimental_result("O=C(c1nccs1)N1CCN(C2CN(C(=O)c3sc4c(F)c(C(F)(F)F)ccc4c3Cl)C2)CC1 [Cpd 650]")
29.9

The compound listed as O=C(c1ccc2c(-c3cccc(C(F)(F)F)c3)c[nH]c2c1)N1CC(N2CCN(C(=O)c3nccs3)CC2)C1 [Cpd 1341] has a reported inhibition in vivo at 30 mg/kg of 7.5

Measured inhibition in vivo at 30 mg/kg, O=C(c1ccc2oc(-c3ccccc3)nc2c1)N1CC(N2CCN(C(=O)c3nccs3)CC2)C1 [Cpd 317] : 43

Lab book: inhibition in vivo at 30 mg/kg of O=C(c1ccc2c(ccn2-c2ccc(F)cc2F)c1)N1CC(N2CCN(C(=O)c3cscn3)CC2)C1 [Cpd 1139] noted as 43.8

inhibition in vivo at 30 mg/kg recorded for this compound, O=C(c1ccc2nc(-c3ccccc3)sc2c1)N1CC(N2CCN(C(=O)c3nccs3)CC2)C1 [Cpd 1125] , is 64.5

The compound listed as O=C(c1cccc(-c2cccc(F)c2)c1)N1CC(N2CCN(C(=O)c3nccs3)CC2)C1 [Cpd 1124] has a reported inhibition in vivo at 30 mg/kg of 88.1

inhibition in vivo at 30 mg/kg recorded for this compound, O=C(c1cscn1)N1CCN(C2CN(C(=O)c3ccc(-c4ccccc4)cc3F)C2)CC1 [Cpd 1108] , is 84.9

Quick note, inhibition in vivo at 30 mg/kg for O=C(c1ccccc1)N1CCN(C2CN(C(=O)c3ccc4c(ccn4-c4ccc(F)c(F)c4)c3)C2)CC1 [Cpd 571] landed at 133

// inhibition in vivo at 30 mg/kg value for O=C(c1ccc2c(ccn2-c2ccc(F)cc2)c1)N1CC(N2CCN(C(=O)c3nccs3)CC2)C1 [Cpd 487] : 109

Given item Cc1cn(-c2ccccc2)c2ccc(C(=O)N3CC(N4CCN(C(=O)c5nccs5)CC4)C3)cc12 [Cpd 1054] , the value recorded as its inhibition in vivo at 30 mg/kg is 27.6

----------
What follows is a record of IC50 for purified wild type MGL (wt-MGLL 6H-11-313) (Homo sapiens, UniProt Q99685).
metric: IC50 (nM)

>>> experimental_result("O=C(c1csc(-c2cc(Cl)cc(Cl)c2)n1)N1CC(N2CCN(C(=O)c3nccs3)CC2)C1 [Cpd 158]")
657

(a) O=C(c1ccc2c(c1)Sc1ccccc1O2)N1CC(N2CCN(C(=O)c3cscn3)CC2)C1 [Cpd 654]
(b) O=C(c1nccs1)N1CCN(C2CN(C(=O)c3nn(-c4ccc(Cl)cc4Cl)c4c3CSC/C4=C\c3ccc(F)cc3)C2)CC1 [Cpd 1021]
(c) Cc1c(C(=O)N2CCN(C3CN(C(=O)c4ccc[nH]4)C3)CC2)sc2cc(C(F)(F)F)ccc12 [Cpd 731]
Query string: Write the entries in order, lowest recorded IC50 first. Order the labels as requested and give them as your answer.
Result string: a, b, c
(a: 7 nM, b: 15 nM, c: 238 nM)

Provenance of the data: patent US8362000B2
